# System: LXRb homodimer (NR concentration 270 nM)
# test_method_notes: PBM binding z-score (relative to random genomic background probes); higher = stronger binding; sequences stand for … in GC…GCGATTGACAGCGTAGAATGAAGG

- residues: "CGTCCAAGGTCAGCAGGTCACTGAAAGCGACGTG"
  target_of_assay: "LXRb homodimer (NR concentration 270 nM)"
  PBM binding z-score: 0.0267
- residues: "TTAACAAGGTGAAAGGTCGTTGATGCACGCCTTG"
  target_of_assay: "LXRb homodimer (NR concentration 270 nM)"
  PBM binding z-score: -0.19
- residues: "CGAACTAGGTCAACAGGACAGTGAAGAGGTTGGA"
  target_of_assay: "LXRb homodimer (NR concentration 270 nM)"
  PBM binding z-score: -0.34
- residues: "CCGACGGGGGCAGAAAGGTTACCATACCATCCGG"
  target_of_assay: "LXRb homodimer (NR concentration 270 nM)"
  PBM binding z-score: 3.55
- residues: "CGAACTAGGTCACCAGGACAGTGACGAGGTTGGA"
  target_of_assay: "LXRb homodimer (NR concentration 270 nM)"
  PBM binding z-score: -0.75
- residues: "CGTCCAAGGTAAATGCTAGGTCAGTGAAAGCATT"
  target_of_assay: "LXRb homodimer (NR concentration 270 nM)"
  PBM binding z-score: -0.419

----------
Listing of recorded PBM binding z-score by entry.
# Tested on: PPARg:RXRa 30nM:10nM, anti-RXR (NR concentration 30 nM, RXRa partner concentration 10 nM)
# test_method_notes: PBM binding z-score (relative to random genomic background probes); higher = stronger binding; sequences stand for … in GC…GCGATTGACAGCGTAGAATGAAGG

- residues: "CAAACTAGGTCACGAAAGGTCAAATTCGAATGAC"
  target_of_assay: "PPARg:RXRa 30nM:10nM, anti-RXR (NR concentration 30 nM, RXRa partner concentration 10 nM)"
  PBM binding z-score: 7.21
- residues: "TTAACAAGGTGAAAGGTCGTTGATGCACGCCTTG"
  target_of_assay: "PPARg:RXRa 30nM:10nM, anti-RXR (NR concentration 30 nM, RXRa partner concentration 10 nM)"
  PBM binding z-score: 9.66
- residues: "TCTAGTTGGTCAAAGGTCTCACACTCGAAATGCG"
  target_of_assay: "PPARg:RXRa 30nM:10nM, anti-RXR (NR concentration 30 nM, RXRa partner concentration 10 nM)"
  PBM binding z-score: 6.65
- residues: "AATACAGGGACATCGTAGGCCAGAGTACGCACAG"
  target_of_assay: "PPARg:RXRa 30nM:10nM, anti-RXR (NR concentration 30 nM, RXRa partner concentration 10 nM)"
  PBM binding z-score: 0.0369
- residues: "CAATCTAGGTCACGAAAGGTCAAAGTCGAATGAC"
  target_of_assay: "PPARg:RXRa 30nM:10nM, anti-RXR (NR concentration 30 nM, RXRa partner concentration 10 nM)"
  PBM binding z-score: 7.62
- residues: "CTGTGTAGGTTAAGGGGGTCATTCAGTTTGAAAG"
  target_of_assay: "PPARg:RXRa 30nM:10nM, anti-RXR (NR concentration 30 nM, RXRa partner concentration 10 nM)"
  PBM binding z-score: 4.23
- residues: "CGTCCAAGGTCAATGCTAGGTCACTGAAAGCATT"
  target_of_assay: "PPARg:RXRa 30nM:10nM, anti-RXR (NR concentration 30 nM, RXRa partner concentration 10 nM)"
  PBM binding z-score: 1.68
- residues: "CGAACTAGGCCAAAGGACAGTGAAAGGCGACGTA"
  target_of_assay: "PPARg:RXRa 30nM:10nM, anti-RXR (NR concentration 30 nM, RXRa partner concentration 10 nM)"
  PBM binding z-score: 5.3
- residues: "CCTTACGGGTCAGGGTTATAGCACGGGTGGTACG"
  target_of_assay: "PPARg:RXRa 30nM:10nM, anti-RXR (NR concentration 30 nM, RXRa partner concentration 10 nM)"
  PBM binding z-score: 0.621
- residues: "ATATGCAGGTTATCGGGTCATTCAGTTTGCGCAT"
  target_of_assay: "PPARg:RXRa 30nM:10nM, anti-RXR (NR concentration 30 nM, RXRa partner concentration 10 nM)"
  PBM binding z-score: 1.56
- residues: "TAGAGTAGGTTACGGGGGCATTCAGGGATGAAGA"
  target_of_assay: "PPARg:RXRa 30nM:10nM, anti-RXR (NR concentration 30 nM, RXRa partner concentration 10 nM)"
  PBM binding z-score: 4.51
- residues: "ATATCTAGGTAAAAGTTCAGTGAATCCCGAGGAT"
  target_of_assay: "PPARg:RXRa 30nM:10nM, anti-RXR (NR concentration 30 nM, RXRa partner concentration 10 nM)"
  PBM binding z-score: 9.08
